Listed below: IC50 relative to chimeric antibody (ratio to chimeric antibody) values for each entry.
Biological target: biotinylated αvβ6
Assay: inhibition of biotinylated αvβ6 binding to plate-coated LAP, streptavidin-HRP
Note: the reply should be a number with no unit written.

Please review the entries below; each comes with its answer.
humanized 1A8 antibody VH1/Vκ3 (antibody, IgG1, V domains shown) VH: QVQFVQSGPELKKPGASVKVSCKGSSYTFTDYTMHWVKLAHAKTLEWIGVIDTYYGKTNYNQKFEGRATMTVDKSSSTAYMELARLRSEDSAVYYCARGGFRRGDRPSLRYAMDSWGQGTSVTVSS VL: DIVMTQSPDSLAVSLGERATINCRASQSVSISTYSYIHWFQQKPGQPPKLLIKYASNLESGVPDRFSGSGSGTDFTLKISRVEAEDVGIYYCQHSWEIPYTFGGGTKVEIK; 1.05
humanized 1A8 antibody VH2/Vκ3 (antibody, IgG1, V domains shown) VH: QVQLVQSGAEVKKPGASVKVSCKGSSYTFTDYTMHWVKLASAKTLEWIGVIDTYYGKTNYNQKFEGRATMTVDKSSSTAYMELSSLRSEDTAVYYCARGGFRRGDRPSLRYAMDSWGQGTLVTVSS VL: DIVMTQSPDSLAVSLGERATINCRASQSVSISTYSYIHWFQQKPGQPPKLLIKYASNLESGVPDRFSGSGSGTDFTLKISRVEAEDVGIYYCQHSWEIPYTFGGGTKVEIK; 0.98
humanized 1A8 antibody VH2/Vκ1 (antibody, IgG1, V domains shown) VH: QVQLVQSGAEVKKPGASVKVSCKGSSYTFTDYTMHWVKLASAKTLEWIGVIDTYYGKTNYNQKFEGRATMTVDKSSSTAYMELSSLRSEDTAVYYCARGGFRRGDRPSLRYAMDSWGQGTLVTVSS VL: DIVLTQSPDSLAVSLGERATINCRASQSVSISTYSYIHWFQQKPGQPPKLLIKYASNLESGVPDRFSGSGSGTDFTLNIHPVEEEDVGIYYCQHSWEIPYTFGGGTKVEIK; 1.48
humanized 1A8 antibody VH4/Vκ2 (antibody, IgG1, V domains shown) VH: QVQLVQSGAEVKKPGASVKVSCKGSSYTFTDYTMHWVRLASAKTLEWIGVIDTYYGKTNYNQKFEGRATITVDKSSSTAYMELSSLRSEDTAVYYCARGGFRRGDRPSLRYAMDSWGQGTLVTVSS VL: DIVLTQSPDSLAVSLGERATINCRASQSVSISTYSYIHWFQQKPGQPPKLLIKYASNLESGVPDRFSGSGSGTDFTLKISRVEEEDVGIYYCQHSWEIPYTFGGGTKVEIK; 2.3
humanized 1A8 antibody VH3/Vκ1 (antibody, IgG1, V domains shown) VH: QVQLVQSGAEVKKPGASVKVSCKGSSYTFTDYTMHWVRLASAKTLEWIGVIDTYYGKTNYNQKFEGRATMTVDKSSSTAYMELSSLRSEDTAVYYCARGGFRRGDRPSLRYAMDSWGQGTLVTVSS VL: DIVLTQSPDSLAVSLGERATINCRASQSVSISTYSYIHWFQQKPGQPPKLLIKYASNLESGVPDRFSGSGSGTDFTLNIHPVEEEDVGIYYCQHSWEIPYTFGGGTKVEIK; 1.07

Would you kindly look at the next entry?
[Q] Requested read-out: IC50 relative to chimeric antibody (ratio to chimeric antibody). Entry: humanized 1A8 antibody VH4/Vκ1 (antibody, IgG1, V domains shown) VH: QVQLVQSGAEVKKPGASVKVSCKGSSYTFTDYTMHWVRLASAKTLEWIGVIDTYYGKTNYNQKFEGRATITVDKSSSTAYMELSSLRSEDTAVYYCARGGFRRGDRPSLRYAMDSWGQGTLVTVSS VL: DIVLTQSPDSLAVSLGERATINCRASQSVSISTYSYIHWFQQKPGQPPKLLIKYASNLESGVPDRFSGSGSGTDFTLNIHPVEEEDVGIYYCQHSWEIPYTFGGGTKVEIK
[A] 1.93
